Origin of values: ChEMBL document CHEMBL3991601

The following compounds each carry a recorded Kd for Adenine phosphoribosyltransferase (Homo sapiens, UniProt P07741).
Calls of active or inactive are those of the source.

Need Kd, item COCC(=O)NC/C=C/c1ccc2ncnc(Nc3ccc(Oc4ccc(C)nc4)c(C)c3)c2c1 > 30 µM (inactive)

Could you do the same for N#CC1(c2ccc(NC(=O)c3cccnc3NCc3ccncc3)cc2)CCCC1 , please? > 30 µM (inactive)

Could you do the same for O=C(Nc1c[nH]nc1-c1nc2cc(CN3CCOCC3)ccc2[nH]1)NC1CC1 , please? > 30 µM (inactive)

Could you do the same for CN(C[C@@H]1COCCO1)S(=O)(=O)Nc1ccc2ccc3ncc(-c4cnn(C)c4)cc3c(=O)c2c1 , please? > 30 µM (inactive)

Could you do the same for COc1cc(Nc2ncc3c(n2)-c2ccc(Cl)cc2C(c2c(F)cccc2OC)=NC3)ccc1C(=O)O , please? > 30 µM (inactive)

Could you do the same for CCOc1cc2ncc(C#N)c(Nc3ccc(F)c(Cl)c3)c2cc1NC(=O)/C=C/CN(C)C , please? > 30 µM (inactive)

Could you do the same for CCS(=O)(=O)c1cccc(-c2cc(C(=O)NC3CCN(C)CC3)c(C)c3[nH]c4ncc(C)cc4c23)c1 , please? > 30 µM (inactive)

Could you do the same for CC(=O)c1cnc2ccc(-c3cc(Cl)c(O)c(Cl)c3)nc2c1N[C@H]1CC[C@H](CN(C)C)CC1 , please? > 30 µM (inactive)

Could you do the same for CCNC(=O)C#Cc1ccc2c(c1)NC(=O)/C2=C(\Nc1ccc(CN(C)C)cc1)c1ccccc1 , please? > 30 µM (inactive)

Could you do the same for C[C@@H](Oc1cc(C(=O)Nc2ccc(C(=O)N3CCN(C)CC3)cc2)nnc1N)c1c(Cl)ccc(F)c1Cl , please? > 30 µM (inactive)

Could you do the same for CO[C@H]1C[C@@H]2CC[C@@H](C)[C@@](O)(O2)C(=O)C(=O)N2CCCC[C@H]2C(=O)O[C@H]([C@H](C)C[C@@H]2CC[C@@H](OP(C)(C)=O)[C@H](OC)C2)CC(=O)[C@H](C)/C=C(\C)[C@@H](O)[C@@H](OC)C(=O)[C@H](C)C[C@H](C)/C=C/C=C/C=C/1C , please? > 30 µM (inactive)

Could you do the same for COc1ccc(S(=O)(=O)N(C(C)=O)c2ccccc2/C=C/c2cc[n+]([O-])cc2)cc1 , please? > 30 µM (inactive)

Could you do the same for CO[C@H]1C[C@@H]2CC[C@@H](C)[C@@](O)(O2)C(=O)C(=O)N2CCCC[C@H]2C(=O)O[C@H]([C@H](C)C[C@@H]2CC[C@@H](O)[C@H](OC)C2)CC(=O)[C@H](C)/C=C(\C)[C@@H](O)[C@@H](OC)C(=O)[C@H](C)C[C@H](C)/C=C/C=C/C=C/1C , please? > 30 µM (inactive)

Could you do the same for CCn1c(C(=O)N(C2CC2)C2CC2)cc2c3c(ncn3C)c(Nc3cc(C)n(C)n3)nc21 , please? > 30 µM (inactive)

###

# Test target: Dual specificity mitogen-activated protein kinase kinase 5 (Homo sapiens, UniProt Q13163); note: in the data inactive means no Kd found up to 30 µM
# Sequence (Q13163 whole entry): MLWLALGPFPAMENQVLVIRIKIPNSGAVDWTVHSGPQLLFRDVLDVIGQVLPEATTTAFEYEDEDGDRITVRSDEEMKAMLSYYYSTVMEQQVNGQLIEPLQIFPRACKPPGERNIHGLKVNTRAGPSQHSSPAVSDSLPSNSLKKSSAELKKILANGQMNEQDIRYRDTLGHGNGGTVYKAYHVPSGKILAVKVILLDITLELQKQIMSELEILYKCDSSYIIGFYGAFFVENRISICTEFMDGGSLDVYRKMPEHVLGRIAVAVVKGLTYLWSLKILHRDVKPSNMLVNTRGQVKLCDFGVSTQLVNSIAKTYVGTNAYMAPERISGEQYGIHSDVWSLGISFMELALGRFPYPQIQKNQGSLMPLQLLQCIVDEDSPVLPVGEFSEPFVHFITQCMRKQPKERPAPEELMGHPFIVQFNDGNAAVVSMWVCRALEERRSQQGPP
Active and inactive are the calls of the source.
Please respond with reported Kd for every item in the list.

Need Kd, item C[C@@H](NC(=O)c1ncnc(N)c1Cl)c1ncc(C(=O)Nc2cc(C(F)(F)F)c(Cl)cn2)s1 > 30 µM (inactive)

Could you do the same for O=C(Cc1ccc(-c2ccc(OCCN3CCOCC3)cc2)cn1)NCc1ccccc1 , please? > 30 µM (inactive)

Could you do the same for FC(F)(F)c1ccc(/C=C/c2nc(COc3ccc(CCCCn4ccnn4)cc3)co2)cc1 , please? > 30 µM (inactive)

Could you do the same for CO[C@H]1C[C@@H]2CC[C@@H](C)[C@@](O)(O2)C(=O)C(=O)N2CCCC[C@H]2C(=O)O[C@H]([C@H](C)C[C@@H]2CC[C@@H](OP(C)(C)=O)[C@H](OC)C2)CC(=O)[C@H](C)/C=C(\C)[C@@H](O)[C@@H](OC)C(=O)[C@H](C)C[C@H](C)/C=C/C=C/C=C/1C , please? > 30 µM (inactive)

Could you do the same for N#CC1(c2ccc(NC(=O)c3cccnc3NCc3ccncc3)cc2)CCCC1 , please? > 30 µM (inactive)

Could you do the same for C[C@@H](N)c1ccc(C(=O)Nc2ccnc3[nH]ccc23)cc1 , please? > 30 µM (inactive)

Could you do the same for COc1cc(Nc2ncc3c(n2)-c2ccc(Cl)cc2C(c2c(F)cccc2OC)=NC3)ccc1C(=O)O , please? > 30 µM (inactive)

Could you do the same for COc1cc2ncnc(Oc3cccc(NC(=O)Nc4cc(C(C)(C)C(F)(F)F)on4)c3)c2cc1OC , please? > 30 µM (inactive)

###

# Test target: Serine/threonine-protein kinase A-Raf (Homo sapiens); note: in the data inactive means no Kd found up to 30 µM
# Sequence (P10398 whole entry): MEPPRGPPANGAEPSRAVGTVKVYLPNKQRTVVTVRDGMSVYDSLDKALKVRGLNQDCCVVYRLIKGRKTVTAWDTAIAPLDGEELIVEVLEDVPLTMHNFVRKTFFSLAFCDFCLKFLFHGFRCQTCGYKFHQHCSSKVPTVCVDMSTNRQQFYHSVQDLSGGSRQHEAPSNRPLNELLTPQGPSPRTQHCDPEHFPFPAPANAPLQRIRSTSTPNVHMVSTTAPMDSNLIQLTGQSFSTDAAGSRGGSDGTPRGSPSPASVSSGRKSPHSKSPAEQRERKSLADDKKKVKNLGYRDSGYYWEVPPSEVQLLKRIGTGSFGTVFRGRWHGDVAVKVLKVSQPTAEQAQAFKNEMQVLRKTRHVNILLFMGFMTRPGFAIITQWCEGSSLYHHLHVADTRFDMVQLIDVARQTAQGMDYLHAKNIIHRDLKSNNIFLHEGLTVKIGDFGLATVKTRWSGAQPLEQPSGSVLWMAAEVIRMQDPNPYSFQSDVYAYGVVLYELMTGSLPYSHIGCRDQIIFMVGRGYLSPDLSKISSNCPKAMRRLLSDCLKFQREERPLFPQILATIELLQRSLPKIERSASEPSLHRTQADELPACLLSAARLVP
The source made the active and inactive calls.
Just give me one of these, please: active, inactive

Hi team, can someone confirm the assay call for CNC(=O)c1nn(C)c2c1C(C)(C)Cc1cnc(Nc3ccc(N4CCN(C)CC4)cc3)nc1-2 [MILCICLIB] ? inactive

Could you do the same for Cn1ncc(Cl)c1-c1cc(C(=O)N[C@H](CN)Cc2ccc(F)c(F)c2)oc1Cl [UPROSERTIB] , please? inactive

Could you do the same for Cn1cc(-c2cnc3ccc4ccc(CS(=O)(=O)NCc5ccccn5)cc4c(=O)c3c2)cn1 [MK-8033] , please? inactive

Could you do the same for O=C(Cc1ccc(-c2ccc(OCCN3CCOCC3)cc2)cn1)NCc1ccccc1 [TIRBANIBULIN] , please? inactive

Could you do the same for CC(C)(C)c1nc(-c2cccc(NS(=O)(=O)c3c(F)cccc3F)c2F)c(-c2ccnc(N)n2)s1 [DABRAFENIB] , please? active

Could you do the same for CCOc1cc2ncc(C#N)c(Nc3ccc(F)c(Cl)c3)c2cc1NC(=O)/C=C/CN(C)C [PELITINIB] , please? inactive

Could you do the same for Cc1cc(Nc2ncnc3ccc(NC4=NC(C)(C)CO4)cc23)ccc1Oc1ccn2ncnc2c1 [TUCATINIB] , please? inactive

Could you do the same for COc1ccc(S(=O)(=O)N(C(C)=O)c2ccccc2/C=C/c2cc[n+]([O-])cc2)cc1 [HMN-214] , please? inactive

Could you do the same for Cc1nc(NC(=O)N2CCC[C@H]2C(N)=O)sc1-c1ccnc(C(C)(C)C(F)(F)F)c1 [ALPELISIB] , please? inactive

Could you do the same for CNC(=O)c1cccc2cc(Oc3ccnc4cc(OCC5(N)CC5)c(OC)cc34)ccc12 [LUCITANIB] , please? inactive

Could you do the same for NC(=O)Nc1cc(-c2cccc(F)c2)sc1C(=O)N[C@H]1CCCNC1 [AZD-7762] , please? inactive
